Reference source: patent US20240336701A1

# reported Cyno ENTPD2 NIH/3T3 Assay % inhibition; entries follow
- Assayed target: T1, cynomolgus ENTPD2, full length, on cells (cynomolgus macaque, UniProt Q9Y5L3 1-495 (human entry)); also: test concentration or dose not given here
- T1 chain: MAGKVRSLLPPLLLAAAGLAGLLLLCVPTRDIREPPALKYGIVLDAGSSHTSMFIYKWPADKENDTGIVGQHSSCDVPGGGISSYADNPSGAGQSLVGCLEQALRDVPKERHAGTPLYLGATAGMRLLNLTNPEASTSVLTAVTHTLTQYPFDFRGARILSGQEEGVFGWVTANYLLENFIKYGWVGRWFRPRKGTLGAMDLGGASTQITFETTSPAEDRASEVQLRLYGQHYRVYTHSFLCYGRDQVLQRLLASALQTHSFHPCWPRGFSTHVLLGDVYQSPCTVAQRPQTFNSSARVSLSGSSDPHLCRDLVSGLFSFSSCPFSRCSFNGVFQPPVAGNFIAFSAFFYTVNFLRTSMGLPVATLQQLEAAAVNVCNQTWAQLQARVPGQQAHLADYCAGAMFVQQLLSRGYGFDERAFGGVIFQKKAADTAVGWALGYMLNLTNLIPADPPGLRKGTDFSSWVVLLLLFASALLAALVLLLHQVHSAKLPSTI
- Method: cell-based or functional assay
Parameter measured: Cyno ENTPD2 NIH/3T3 Assay % inhibition (%)

>>> result_number("ANTI-HUMAN ENTPD2 MAB17 (antibody, human IgG1, kappa, V domains shown) VH: EVQLQQFGAELVKPGASVKISCKASGYTFTDYNMDWVKQSHGKSLEWIGDINPKYDISTYNQQFKGKATLTVDKSSSTAYMELRSLTSEDTAVYYCARRGFFLYYGINYYYFDVWGAGTTVTVSS VL: QIVLTQSPAIMSASLGEEITLTCSASSSVSYIHWYQQKSGTSPTLLIYSTSNLASGVPSRFSGSGSGTFYSLTISSVEAEDAADYYCHQWSSYPWTFGGGTKLEIKR")
91
>>> result_number("ANTI-HUMAN ENTPD2 MAB8 (antibody, human IgG1, lambda, V domains shown) VH: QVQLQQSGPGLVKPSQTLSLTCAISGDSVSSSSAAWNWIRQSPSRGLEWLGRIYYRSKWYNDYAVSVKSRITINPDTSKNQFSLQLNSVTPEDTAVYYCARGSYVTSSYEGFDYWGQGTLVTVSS VL: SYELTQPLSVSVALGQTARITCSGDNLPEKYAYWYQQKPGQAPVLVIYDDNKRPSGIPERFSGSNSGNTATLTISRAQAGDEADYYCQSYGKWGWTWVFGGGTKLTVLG")
96
>>> result_number("ANTI-HUMAN ENTPD2 MAB3 (antibody, human IgG1, kappa, V domains shown) VH: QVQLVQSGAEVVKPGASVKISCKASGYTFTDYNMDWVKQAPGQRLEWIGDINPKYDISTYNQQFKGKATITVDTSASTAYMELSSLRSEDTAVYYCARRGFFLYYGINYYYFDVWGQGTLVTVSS VL: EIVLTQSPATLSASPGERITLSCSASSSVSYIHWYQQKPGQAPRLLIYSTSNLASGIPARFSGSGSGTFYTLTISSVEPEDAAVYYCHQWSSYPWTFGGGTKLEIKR")
84
>>> result_number("ANTI-HUMAN ENTPD2 MAB10 (antibody, human IgG1, lambda, V domains shown) VH: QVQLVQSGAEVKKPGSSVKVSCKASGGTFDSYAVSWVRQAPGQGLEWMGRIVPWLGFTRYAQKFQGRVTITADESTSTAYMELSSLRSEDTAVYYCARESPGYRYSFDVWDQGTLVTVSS VL: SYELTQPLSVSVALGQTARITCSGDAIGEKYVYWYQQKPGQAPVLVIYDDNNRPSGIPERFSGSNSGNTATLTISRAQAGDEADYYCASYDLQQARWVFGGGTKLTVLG")
86
>>> result_number("ANTI-HUMAN ENTPD2 MAB9 (antibody, human IgG1, lambda, V domains shown) VH: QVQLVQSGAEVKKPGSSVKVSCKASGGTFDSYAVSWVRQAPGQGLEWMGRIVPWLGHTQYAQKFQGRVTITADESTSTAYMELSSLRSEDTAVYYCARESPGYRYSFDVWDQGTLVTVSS VL: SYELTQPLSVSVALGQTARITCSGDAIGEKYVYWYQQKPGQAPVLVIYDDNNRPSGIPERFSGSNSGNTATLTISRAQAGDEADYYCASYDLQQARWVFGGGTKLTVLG")
71
>>> result_number("ANTI-HUMAN ENTPD2 MAB6 (antibody, human IgG1, kappa, V domains shown) VH: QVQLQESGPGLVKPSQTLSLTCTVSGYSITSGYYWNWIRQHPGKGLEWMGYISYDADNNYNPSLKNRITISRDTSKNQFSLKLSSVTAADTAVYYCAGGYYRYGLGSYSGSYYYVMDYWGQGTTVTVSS VL: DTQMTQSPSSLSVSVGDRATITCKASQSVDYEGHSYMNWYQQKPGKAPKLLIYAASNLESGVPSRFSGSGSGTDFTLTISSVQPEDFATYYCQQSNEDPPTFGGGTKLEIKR")
73
>>> result_number("ANTI-HUMAN ENTPD2 MAB18 (antibody, human IgG1, kappa, V domains shown) VH: DIQLQESGPGLVKPSQSLSLTCSVTGYSITSGYYWNWIRQFPGNKLEWMGYISYDGDNNYNPSLKNRISITRDTSKNQFFLKLSSVTTEDTATYYCAGGYYRYGLGSYSGSYYYVMDYWGQGTSVTVSS VL: DTVLTQSPASLAVSLGQRATISCKASQSVDYDGNSYMNWYQQKPGQPPKLLIYAASNLESGIPARFSGSGSGTDFTLNIHPVEEEDAATYYCQQSNEDPPTFGGGTKLEIKR")
68
>>> result_number("ANTI-HUMAN ENTPD2 MAB4 (antibody, human IgG1, kappa, V domains shown) VH: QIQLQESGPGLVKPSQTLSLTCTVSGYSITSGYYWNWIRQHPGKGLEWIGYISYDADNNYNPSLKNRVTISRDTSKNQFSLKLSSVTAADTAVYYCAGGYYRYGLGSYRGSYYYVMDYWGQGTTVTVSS VL: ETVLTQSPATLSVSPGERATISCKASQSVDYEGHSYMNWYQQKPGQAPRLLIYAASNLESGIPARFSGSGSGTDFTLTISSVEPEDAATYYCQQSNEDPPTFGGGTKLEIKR")
75
>>> result_number("ANTI-HUMAN ENTPD2 MAB16 (antibody, human IgG1, kappa, V domains shown) VH: DIQLQESGPGLVKPSQSLSLTCSVTGYSITSGYYWNWIRQFPGNKLEWMGYISYDGDNNYNPSLKNRISITRDTSKNQFFLKLSSVTTEDTATYYCAGGYYRYGLSYYYVMDYWGQGTSVTVSS VL: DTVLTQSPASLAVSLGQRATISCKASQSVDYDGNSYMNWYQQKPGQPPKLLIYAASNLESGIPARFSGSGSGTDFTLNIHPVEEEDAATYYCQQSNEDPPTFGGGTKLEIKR")
5
>>> result_number("ANTI-HUMAN ENTPD2 MAB1 (antibody, human IgG1, kappa, V domains shown) VH: EVQLVQSGAEVKKPGESLKISCKASGYTFTDYNMDWVRQMPGKGLEWMGDINPKYDISTYNQQFKGQVTISADKSIRTAYLQWSSLKASDTAMYYCARRGFFLYYGINYYYFDVWGQGTLVTVSS VL: DIQLTQSPSSLSASVGDRVTITCSASSSVSYIHWFQQKPGKAPKLLIYSTSNLASGVPSRFSGSGSGTFFTLTISSLQPEDFATYFCHQWSSYPWTFGQGTKVEIKR")
91
>>> result_number("ANTI-HUMAN ENTPD2 MAB5 (antibody, human IgG1, kappa, V domains shown) VH: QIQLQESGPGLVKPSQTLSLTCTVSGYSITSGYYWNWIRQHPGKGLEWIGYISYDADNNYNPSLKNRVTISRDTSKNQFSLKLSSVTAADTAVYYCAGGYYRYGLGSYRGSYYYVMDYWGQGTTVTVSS VL: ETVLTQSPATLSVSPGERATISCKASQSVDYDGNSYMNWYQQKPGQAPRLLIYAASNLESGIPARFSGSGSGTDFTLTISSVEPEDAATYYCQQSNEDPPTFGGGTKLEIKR")
80
